Entries annotated with measured IC50
# Study target: T1, recombinant human IL-23R/Fc chimera (R&D Systems) (human, UniProt Q5VWK5 24-355)
# T1 construct: Bought; also called rhIL23RFc
# T1 sequence (looked up): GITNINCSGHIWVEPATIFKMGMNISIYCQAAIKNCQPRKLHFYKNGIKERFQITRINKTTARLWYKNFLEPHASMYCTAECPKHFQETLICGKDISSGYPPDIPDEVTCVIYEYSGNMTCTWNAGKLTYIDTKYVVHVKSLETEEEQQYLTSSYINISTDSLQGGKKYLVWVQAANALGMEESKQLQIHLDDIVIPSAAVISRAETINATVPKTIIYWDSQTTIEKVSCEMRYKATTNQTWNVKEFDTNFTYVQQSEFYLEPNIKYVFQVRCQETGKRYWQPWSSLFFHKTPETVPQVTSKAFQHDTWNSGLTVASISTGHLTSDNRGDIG
# Method: competition ELISA vs IL-23
Numeric answer only, unit nM assumed.

A selection of reference data follows.
# Binder, IC50 (nM)
records = [
    ("056-40.A3C ATRIMER complex (designed binder, Homotrimer of this chain (ATRIMER complex)., not shown: A possible extra N-terminal Ser from the ompA junction is left out) EPPTQKPKKIVNAKKDVVNTKMFEELKSRLDTLAQEVALLKEQQALQTVCLKGTKVHMKCFLAFTQTKTFHEASEDCISRGGTLSTPQTGSENDALYEYLRQSVGNEAEIWLGLNGSATTATWVDMTGARIAYKNWETEITAQPDGGFGYFGENCAVLSGAANGKWFDKRCRDQLPYICQFGIV", 1.8),
    ("001-87.A9E ATRIMER complex (designed binder, Homotrimer of this chain (ATRIMER complex)., not shown: A possible extra N-terminal Ser from the ompA junction is left out) EPPTQKPKKIVNAKKDVVNTKMFEELKSRLDTLAQEVALLKEQQALQTVCLKGTKVHMKCFLAFTQTKTFHEASEDCISRGGTLSTPQTGSENDALYEYLRQSVGNEAEIWLGLNGSALTNTWVDMTGARIAYKNWETEITAQPDGGLGYWGENCAVLSGAANGKWFDKRCRDQLPYICQFGIV", 2.6),
    ("056-41.B5C ATRIMER complex (designed binder, non-covalent homotrimer of the one chain given, not shown: Also the single Ser the vector leaves after the ompA signal) EPPTQKPKKIVNAKKDVVNTKMFEELKSRLDTLAQEVALLKEQQALQTVCLKGTKVHMKCFLAFTQTKTFHEASEDCISRGGTLSTPQTGSENDALYEYLRQSVGNEAEIWLGLNGSALTNTWVDMTGARIAYKNWETEITAQPDGGFGYFGENCAVLSGAANGKWFDKRCRDQLPYICQFGIV", 1.65),
]

Attention now turns to another entry.
[ask] May I ask what IC50 has been recorded for 056-45.F7F ATRIMER complex (designed binder, Homotrimer of this chain (ATRIMER complex)., not shown: A possible extra N-terminal Ser from the ompA junction is left out) EPPTQKPKKIVNAKKDVVNTKMFEELKSRLDTLAQEVALLKEQQALQTVCLKGTKVHMKCFLAFTQTKTFHEASEDCISRGGTLSTPQTGSENDALYEYLRQSVGNEAEIWLGLNGSATTDTWVDMTGARIAYKNWETEITAQPDGGFGYFGENCAVLSGAANGKWFDKRCRDQLPYICQFGIV ?
[reply] 1.45
